Test: chemical genetic growth profiling, strain panel (AID 1159580);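 note: tested at 20 µM; growth read once vehicle control cultures reached saturation at 30 °C; 1 = growth at the plate median or of vehicle wells; lower values mean less growth of the strain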
Conditions: S. cerevisiae deletion strains, growth OD, locus YDL040C, strain nat1, stronger effect = lower value
The campaign covered roughly 5,500 compounds. About 2,000 (36%) were called active. Another 18% or so got no clear call; they are omitted. Some of the results follow.
OBSERVED_PROPERTY: normalized growth
In your answer, state the number alone without any accompanying words.

Solved entries:
CN(C)CCN(Cc1cccs1)c1ccccn1 = 1.01
Oc1cc(O)c2c(c1)O[C@H](c1ccc(O)c(O)c1)[C@@H](O)C2 = 1

input: Can you look up the measured normalized growth of `CCCCNC(=O)NS(=O)(=O)c1ccc(C)cc1` for me?
output: 1.01

input: Can you look up the measured normalized growth of `Cc1ccc(S(=O)(=O)NC(=O)NN2CCCCCC2)cc1` for me?
output: 0.991

input: Can you look up the measured normalized growth of `O=C1C(Cl)=C(Cl)C(=O)C(Cl)=C1Cl` for me?
output: 0.976

input: Can you look up the measured normalized growth of `CN(C)CCN(Cc1ccccc1)c1ccccn1` for me?
output: 1.02

input: Can you look up the measured normalized growth of `Oc1cc(O)c2c(c1)O[C@H](c1cc(O)c(O)c(O)c1)[C@H](O)C2` for me?
output: 1.01

input: Can you look up the measured normalized growth of `COc1ccc(CN(CCN(C)C)c2ccccn2)cc1` for me?
output: 1.01

Hello, the source for this data is PubChem BioAssay AID1159580, in case you need it.
